Taken from patent US20230078764A1.

- experimentalTarget: human SCD5 (Homo sapiens)
- Construct: expressed in transfected cells; host or cells: yeast strain with OLE1 deleted, plasmid-borne human SCD5 (selected in SD-Ura)
- Sequence (Q86SK9 whole entry): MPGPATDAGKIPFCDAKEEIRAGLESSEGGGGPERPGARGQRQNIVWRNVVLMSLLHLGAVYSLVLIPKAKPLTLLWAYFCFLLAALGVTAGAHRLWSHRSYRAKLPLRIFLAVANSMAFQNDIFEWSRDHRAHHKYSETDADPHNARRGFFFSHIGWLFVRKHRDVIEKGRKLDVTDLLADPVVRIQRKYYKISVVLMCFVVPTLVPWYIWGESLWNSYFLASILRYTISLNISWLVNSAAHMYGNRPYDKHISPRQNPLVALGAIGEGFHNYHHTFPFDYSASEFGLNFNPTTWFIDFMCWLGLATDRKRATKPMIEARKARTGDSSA
- assayProcedure: Growth inhibition of yeast strain expressing human SCD5 as sole desaturase (OLE1 deleted), OD600 readout
- Type: cell-based
- particulars: yeast strain expressing human SCD5 as sole desaturase; growth (OD600) after 40 h at 30° C.; read-out: SCD5 IC50
measurementKind: IC50 (nM)

CN(C)C(=O)c1ccc(NC(=O)c2ccc(Cc3cccc(Cl)c3)cn2)cc1	4520
Cn1cccc(C(=O)Nc2ccc(Cc3cccc(F)c3)cn2)c1=O	10

I = O=C(Nc1ccc(Cc2cccc(F)c2)cn1)c1cc2ncnc(Cl)c2s1
II = Cn1nc(C(=O)Nc2ccc(Cc3cc(F)cc(F)c3)cn2)cc1O
III = Cn1cc(C(=O)Nc2ccc(Oc3cc(F)cc(Cl)c3)cn2)ccc1=O
IV = Cn1cc(C(=O)N[C@H]2CC[C@H](Cc3cccc(Cl)c3)CC2)ccc1=O
Q: Parameters: sort_field (IC50), sort_dir (desc). Answer format: the labels, ordered as requested.
A: IV, I, II, III
